B1: IKZF1 (parent)
chain: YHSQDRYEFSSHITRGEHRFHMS

- Variants of: B1
- protocol notes: protein stability index of a GFP-peptide fusion (GPS, HEK-293T) (PSI 1-6); higher = more stable;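 further: lentivirally expressed fusions sorted by FACS into six bins by GFP to DsRed ratio, PSI derived from sequencing read proportions per bin multiplied by bin number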
- test parameters: c terminus: native

{"mutation code": "R15F", "protein stability index": 2.34}
{"mutation code": "R19I", "protein stability index": 2.17}
{"mutation code": "Y7W", "protein stability index": 2.46}
{"mutation code": "M22Q", "protein stability index": 2.11}
{"mutation code": "H2S", "protein stability index": 3.36}
{"mutation code": "I13N", "protein stability index": 2.05}
{"mutation code": "I13S", "protein stability index": 2.03}
{"mutation code": "R6D", "protein stability index": 2.49}
{"mutation code": "T14S", "protein stability index": 1.85}
{"mutation code": "S23C", "protein stability index": 1.94}
{"mutation code": "S10N", "protein stability index": 1.72}
{"mutation code": "R19A", "protein stability index": 2.47}
{"mutation code": "R15N", "protein stability index": 1.99}
{"mutation code": "H12Q", "protein stability index": 2.83}
{"mutation code": "R6S", "protein stability index": 1.87}
{"mutation code": "T14M", "protein stability index": 1.84}
{"mutation code": "S3F", "protein stability index": 1.76}
{"mutation code": "S10F", "protein stability index": 2.1}
{"mutation code": "Q4N", "protein stability index": 1.89}
{"mutation code": "Q4I", "protein stability index": 1.57}
{"mutation code": "H21F", "protein stability index": 1.98}
{"mutation code": "Q4F", "protein stability index": 2.33}
{"mutation code": "S11Q", "protein stability index": 2.07}
{"mutation code": "G16T", "protein stability index": 2.4}
{"mutation code": "S11T", "protein stability index": 2.02}
{"mutation code": "T14E", "protein stability index": 1.68}
{"mutation code": "S23F", "protein stability index": 2.01}
{"mutation code": "H2I", "protein stability index": 1.94}
{"mutation code": "S3R", "protein stability index": 2.47}
{"mutation code": "T14A", "protein stability index": 2.38}
{"mutation code": "Y7C", "protein stability index": 1.91}
{"mutation code": "H12W", "protein stability index": 2.85}
{"mutation code": "Y1D", "protein stability index": 4.05}
{"mutation code": "R15D", "protein stability index": 2}
{"mutation code": "H12F", "protein stability index": 2.04}
{"mutation code": "S23K", "protein stability index": 2.28}
{"mutation code": "S23A", "protein stability index": 1.8}
{"mutation code": "E8A", "protein stability index": 2.79}
{"mutation code": "S23H", "protein stability index": 2.23}
{"mutation code": "S3C", "protein stability index": 1.59}
{"mutation code": "S10Q", "protein stability index": 2.08}
{"mutation code": "S10D", "protein stability index": 1.74}
{"mutation code": "S23Y", "protein stability index": 2.42}
{"mutation code": "H12P", "protein stability index": 2.27}
{"mutation code": "I13V", "protein stability index": 1.78}
{"mutation code": "F20T", "protein stability index": 1.75}
{"mutation code": "H21A", "protein stability index": 2.43}
{"mutation code": "F20W", "protein stability index": 2.93}
{"mutation code": "S23T", "protein stability index": 2.02}
{"mutation code": "I13T", "protein stability index": 1.97}
{"mutation code": "R15H", "protein stability index": 1.73}
{"mutation code": "E8P", "protein stability index": 3.38}
{"mutation code": "H12V", "protein stability index": 2.49}
{"mutation code": "H18P", "protein stability index": 1.81}
{"mutation code": "H12A", "protein stability index": 1.71}
{"mutation code": "Q4Y", "protein stability index": 1.77}
{"mutation code": "M22P", "protein stability index": 2.01}
{"mutation code": "F20V", "protein stability index": 1.39}
{"mutation code": "F9E", "protein stability index": 1.97}
{"mutation code": "H18T", "protein stability index": 1.92}
{"mutation code": "S11P", "protein stability index": 3.03}
{"mutation code": "E17F", "protein stability index": 1.62}
{"mutation code": "D5W", "protein stability index": 3.3}
{"mutation code": "D5I", "protein stability index": 2.41}
{"mutation code": "Y1N", "protein stability index": 4.05}
{"mutation code": "H21K", "protein stability index": 1.37}
{"mutation code": "H21E", "protein stability index": 1.44}
{"mutation code": "T14R", "protein stability index": 2.07}
{"mutation code": "Y1P", "protein stability index": 3.84}
{"mutation code": "E8G", "protein stability index": 1.72}
{"mutation code": "R19S", "protein stability index": 1.99}
{"mutation code": "F20N", "protein stability index": 2.56}
{"mutation code": "S10Y", "protein stability index": 2}
{"mutation code": "T14F", "protein stability index": 1.47}
{"mutation code": "S10E", "protein stability index": 1.74}
{"mutation code": "Y7A", "protein stability index": 1.89}
{"mutation code": "R19Y", "protein stability index": 2.16}
